Source of measurements: paper PMC5540273

Attribute: Kd
# Tested on: PDGFRB;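 note: kd values determined as follow-up on hits from a single-replicate KINOMEscan panel screen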
endpoint: Kd (nM)

cpd_smiles=CC(=O)Nc1n[nH]c2ncc(-c3ccccc3)cc12 endpoint=Kd recorded_measurement=270
cpd_smiles=Cc1ccc(NC(=O)c2cccc(C#N)c2)cc1-c1ccc(C(=O)Nc2ccncc2)cc1 endpoint=Kd recorded_measurement=13
cpd_smiles=Cn1ccc2ncnc(Oc3ccc(NC(=O)Nc4cccnc4)c(Cl)c3)c21 endpoint=Kd recorded_measurement=95
cpd_smiles=COc1cc2c(Nc3cccc(NC(=O)c4ccccc4)c3)ncnc2cc1OCCCN1CCOCC1 endpoint=Kd recorded_measurement=560
cpd_smiles=COc1ccc(NC(=O)Nc2ccc(C)c(-c3ccc(C(=O)Nc4ccncc4)cc3)c2)cc1 endpoint=Kd recorded_measurement=48
cpd_smiles=O=C(Nc1n[nH]c2nc(-c3ccco3)c(Br)cc12)c1ccc(CN2CCCC2)cc1.O=C(O)[C@H](O)[C@@H](O)C(=O)O endpoint=Kd recorded_measurement=67
